Measured PBM binding z-score accompanies every entry in the list below.
Test system: PPARg:RXRa DBDmut IVT, anti-RXR (DBD mutation: RXRa K156A/R161A, NR concentration 270 nM, RXRa partner concentration 90 nM)
PROTOCOL: PBM binding z-score (relative to random genomic background probes); higher = stronger binding; sequences stand for … in GC…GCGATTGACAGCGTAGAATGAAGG
Kindly provide the number alone.

# annotated cases, reported PBM binding z-score shown
SEQUENCE DATA	MEASUREMENT LABEL	REPORTED RESULT
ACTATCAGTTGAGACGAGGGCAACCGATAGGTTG	PBM binding z-score	-0.519
ATCGAAAGGTCGTGAGCTGAGTATACAGAAAGGC	PBM binding z-score	-0.173
TCGAGTAGGTTAGGGGCATTTAGAATGGCGTCGA	PBM binding z-score	2.14
CCGACTGGGGCATAAGGTAACCATAAGCCAGCCC	PBM binding z-score	2.94
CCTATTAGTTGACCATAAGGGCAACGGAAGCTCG	PBM binding z-score	0.458

Which PBM binding z-score value belongs to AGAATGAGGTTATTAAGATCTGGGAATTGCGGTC ? 3.21

Again, but for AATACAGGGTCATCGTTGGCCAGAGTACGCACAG 2.72

Again, but for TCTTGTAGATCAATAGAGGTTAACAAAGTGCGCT 1.65

Again, but for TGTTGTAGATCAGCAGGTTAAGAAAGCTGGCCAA -1.12

Again, but for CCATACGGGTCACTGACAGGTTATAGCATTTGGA 2.31

* * *

Test system: PPARg:RXRa 30nM:10nM, anti-RXR (NR concentration 30 nM, RXRa partner concentration 10 nM)
PROTOCOL: PBM binding z-score (relative to random genomic background probes); higher = stronger binding; sequences stand for … in GC…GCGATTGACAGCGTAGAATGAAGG
MEASUREMENT LABEL: PBM binding z-score
Kindly provide the number alone.

# annotated cases, reported PBM binding z-score shown
SEQUENCE DATA	TEST SYSTEM	PBM binding z-score
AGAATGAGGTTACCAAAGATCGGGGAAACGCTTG	PPARg:RXRa 30nM:10nM, anti-RXR (NR concentration 30 nM, RXRa partner concentration 10 nM)	0.813
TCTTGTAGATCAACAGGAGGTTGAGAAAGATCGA	PPARg:RXRa 30nM:10nM, anti-RXR (NR concentration 30 nM, RXRa partner concentration 10 nM)	2.81
TGTCAAAGTTCAAAGGTAAAGTAAGTATCCACAC	PPARg:RXRa 30nM:10nM, anti-RXR (NR concentration 30 nM, RXRa partner concentration 10 nM)	5.23
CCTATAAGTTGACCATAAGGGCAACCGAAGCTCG	PPARg:RXRa 30nM:10nM, anti-RXR (NR concentration 30 nM, RXRa partner concentration 10 nM)	0.0132

Which PBM binding z-score value belongs to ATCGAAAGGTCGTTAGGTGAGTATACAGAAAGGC ? 1.33

Again, but for CGTCCAAGGTCAATGGTAGGTCAGTGAAAGCATT 1.28

Again, but for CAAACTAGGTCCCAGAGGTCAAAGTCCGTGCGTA 2.13

Again, but for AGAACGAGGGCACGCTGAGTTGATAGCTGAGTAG 0.18

Again, but for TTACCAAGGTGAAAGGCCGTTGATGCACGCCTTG 2.95

Again, but for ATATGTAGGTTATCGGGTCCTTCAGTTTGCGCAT 1.77

Again, but for CTCGAAAGGTCGTGCACAGGTGAGTATACCAAAC 1.66

Again, but for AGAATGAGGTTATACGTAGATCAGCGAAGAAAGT 0.445

Again, but for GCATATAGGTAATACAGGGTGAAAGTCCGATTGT 0.819

Again, but for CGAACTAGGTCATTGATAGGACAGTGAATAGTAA 3.25

Again, but for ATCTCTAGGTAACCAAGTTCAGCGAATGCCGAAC 0.316

* * *

Test system: PPARa:RXRa (NR concentration 270 nM, RXRa partner concentration 90 nM)
PROTOCOL: PBM binding z-score (relative to random genomic background probes); higher = stronger binding; sequences stand for … in GC…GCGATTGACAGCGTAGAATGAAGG
Binary classification by PBM binding z-score, with 0.6 as an inclusive lower bound for True; all other cases are False.

SEQUENCE DATA	TEST SYSTEM	CLASS LABEL
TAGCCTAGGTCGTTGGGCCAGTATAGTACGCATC	PPARa:RXRa (NR concentration 270 nM, RXRa partner concentration 90 nM)	False
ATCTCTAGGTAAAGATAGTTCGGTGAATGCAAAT	PPARa:RXRa (NR concentration 270 nM, RXRa partner concentration 90 nM)	False
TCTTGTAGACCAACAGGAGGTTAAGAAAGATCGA	PPARa:RXRa (NR concentration 270 nM, RXRa partner concentration 90 nM)	True
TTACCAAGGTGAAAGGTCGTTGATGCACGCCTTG	PPARa:RXRa (NR concentration 270 nM, RXRa partner concentration 90 nM)	True
TCTGCTAGATCAGTTGGTCAGCTAACGAGCTGCC	PPARa:RXRa (NR concentration 270 nM, RXRa partner concentration 90 nM)	False

I'd appreciate it if you could say whether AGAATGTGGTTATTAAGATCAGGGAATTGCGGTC has PBM binding z-score at least equal to 0.6. False

Again, but for CCTAGTAGGCCAATCTGGGTCACTCAAGGCTTGA True

Again, but for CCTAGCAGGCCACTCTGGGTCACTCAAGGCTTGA True

* * *

Measured PBM binding z-score accompanies every entry in the list below.
System: RARa homodimer (NR concentration 270 nM)
PROTOCOL: PBM binding z-score (relative to random genomic background probes); higher = stronger binding; sequences stand for … in GC…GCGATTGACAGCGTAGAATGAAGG
Kindly provide the number alone.

SEQUENCE DATA	TEST SYSTEM	REPORTED RESULT
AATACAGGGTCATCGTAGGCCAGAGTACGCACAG	RARa homodimer (NR concentration 270 nM)	0.854
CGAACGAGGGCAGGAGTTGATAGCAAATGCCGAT	RARa homodimer (NR concentration 270 nM)	-0.0684
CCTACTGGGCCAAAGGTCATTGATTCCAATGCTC	RARa homodimer (NR concentration 270 nM)	1.33

Which PBM binding z-score value belongs to CCTAGTTGGTGAAGGTCACACACGCTATAGGTAC ? 1.61

Again, but for CGATCTAGGTCAAGGACAGTGAATCTCCGCACGC 0.269

Again, but for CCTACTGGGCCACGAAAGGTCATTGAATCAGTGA 0.674

Again, but for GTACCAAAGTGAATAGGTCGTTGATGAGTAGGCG 0.281

Again, but for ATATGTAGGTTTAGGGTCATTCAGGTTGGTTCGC 2.17

* * *

Tested on: LXRa homodimer (NR concentration 270 nM)
PROTOCOL: PBM binding z-score (relative to random genomic background probes); higher = stronger binding; sequences stand for … in GC…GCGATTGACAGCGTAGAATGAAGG
Measured PBM binding z-score accompanies every entry in the list below.
Kindly provide the number alone.

Which PBM binding z-score value belongs to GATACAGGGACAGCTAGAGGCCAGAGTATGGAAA ? -0.464

Again, but for TAGACTAGGTCAGATCGGGCCAGTATACGCTATA -0.254

Again, but for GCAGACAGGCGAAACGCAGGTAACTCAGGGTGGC -0.761

Again, but for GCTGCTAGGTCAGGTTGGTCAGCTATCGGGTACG -0.13

Again, but for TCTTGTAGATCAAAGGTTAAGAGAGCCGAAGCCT 0.0362

Again, but for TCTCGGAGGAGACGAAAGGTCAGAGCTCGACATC 1.15

Again, but for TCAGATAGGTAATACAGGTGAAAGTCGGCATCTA 0.032

Again, but for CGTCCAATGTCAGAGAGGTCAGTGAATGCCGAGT 1.37

Again, but for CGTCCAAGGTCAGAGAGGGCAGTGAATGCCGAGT 0.447

Again, but for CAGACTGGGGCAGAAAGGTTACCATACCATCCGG -0.0304

Again, but for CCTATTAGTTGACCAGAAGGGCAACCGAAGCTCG 0.36

Again, but for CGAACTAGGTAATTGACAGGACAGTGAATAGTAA 0.0257

Again, but for CCTAGCAGGCGAATCTGGGTCACTCAAGGCTTGA -0.449

Again, but for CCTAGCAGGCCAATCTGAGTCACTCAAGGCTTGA -0.759

* * *

Tested on: RARg:RXRa (NR concentration 270 nM, RXRa partner concentration 90 nM)
PROTOCOL: PBM binding z-score (relative to random genomic background probes); higher = stronger binding; sequences stand for … in GC…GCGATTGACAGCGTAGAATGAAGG
MEASUREMENT LABEL: PBM binding z-score
Kindly provide the number alone.

# annotated cases, reported PBM binding z-score shown
SEQUENCE DATA	PBM binding z-score
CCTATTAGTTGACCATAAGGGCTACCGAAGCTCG	0.591
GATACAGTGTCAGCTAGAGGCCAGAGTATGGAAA	2.09
CCTACTGGGCCATTCAGAGGTCCTTGATCATATG	-0.0281
AGTCAAAGTTCAATAGGTAACGTAAGATTCAGCT	5.19
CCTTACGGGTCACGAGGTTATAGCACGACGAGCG	6.25
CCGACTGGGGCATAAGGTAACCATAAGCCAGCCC	0.385
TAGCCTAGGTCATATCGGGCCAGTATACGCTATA	3.33
CGTCCAAGGTTAATGCTAGGTCAGTGAAAGCATT	4.63

Moving on to the next sequence.
Which PBM binding z-score value belongs to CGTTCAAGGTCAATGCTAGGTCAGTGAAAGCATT ? 7.74

Data provenance: the supplement of paper PMC6555819
